Assay procedure: recombinant UMI read abundance after kanamycin selection (control-corrected) (log10(CPM+1)); higher = more efficient recombination; extreme values may be limits of the assay; sequences stand for … in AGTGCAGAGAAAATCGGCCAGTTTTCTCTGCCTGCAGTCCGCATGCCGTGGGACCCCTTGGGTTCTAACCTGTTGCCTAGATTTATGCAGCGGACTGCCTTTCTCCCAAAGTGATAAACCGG…AGGTTGGTTTCACT; site = the 11-nt donor
Recorded metric: recombinant UMI read abundance (log10)
Answers are plain numbers.

The cases that follow already have their recombinant UMI read abundance (log10) on record.
[[record]]
macromolecule_sequence = "TTTGTTACATGGACCGGTTTTCCCGGTAATCCGTATTTGCC (site TTTGTTACTGG)"
numeric_value = 0.44

[[record]]
macromolecule_sequence = "GTTACAACATGGACCGGTTTTCCCGGTAATCCGTATTTGGC (site GTTACAACTGC)"
numeric_value = 0


Here is another sequence to look at.
(Q) Fill blank: measured recombinant UMI read abundance (log10) of the sequence ATGTACACATGGACCGGTTTTCCCGGTAATCCGTATTTGAG (site ATGTACACTCT) is ____.
(A) 1.6

* * *

Assay procedure: recombinant UMI read abundance after kanamycin selection (control-corrected) (log10(CPM+1)); higher = more efficient recombination; extreme values may be limits of the assay; sequences stand for … in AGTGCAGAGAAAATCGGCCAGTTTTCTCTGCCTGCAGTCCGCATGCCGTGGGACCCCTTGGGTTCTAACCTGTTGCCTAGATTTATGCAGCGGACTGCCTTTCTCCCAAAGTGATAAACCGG…AGGTTGGTTTCACT; site = the 11-nt donor
Recorded metric: recombinant UMI read abundance (log10)

[[record]]
macromolecule_sequence = "CTGCTGCCATGGACCGGTTTTCCCGGTAATCCGTATTTGCT (site CTGCTGCCTAG)"
result = 1.22

[[record]]
macromolecule_sequence = "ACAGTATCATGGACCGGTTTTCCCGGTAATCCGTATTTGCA (site GCAGTATCTTC)"
result = 0.00944

[[record]]
macromolecule_sequence = "CCTGTAGCATGGACCGGTTTTCCCGGTAATCCGTATTTGAG (site CCTGTAGCTCT)"
result = 0.443

[[record]]
macromolecule_sequence = "CCTAAAGCATGGACCGGTTTTCCCGGTAATCCGTATTTGGT (site CCTAAAGCTAC)"
result = 0

[[record]]
macromolecule_sequence = "CTCCGACCATGGACCGGTTTTCCCGGTAATCCGTATTTGAC (site CTCCGACCTGT)"
result = 0

[[record]]
macromolecule_sequence = "CTAAGGCCATGGACCGGTTTTCCCGGTAATCCGTATTTGAC (site TTAAGGCCTGT)"
result = 0

[[record]]
macromolecule_sequence = "CCCATATCATGGACCGGTTTTCCCGGTAATCCGTATTTGTC (site GCCATATCTGA)"
result = 0

[[record]]
macromolecule_sequence = "ACGGCGTCATGGACCGGTTTTCCCGGTAATCCGTATTTGTC (site ACGGCGTCTGA)"
result = 3.22


Batch of 8 sequences: report recombinant UMI read abundance (log10) for each.
1. AGGTTCCCATGGACCGGTTTTCCCGGTAATCCGTATTTGTG (site AGGTTCCCTAA)
2. AATGGATCATGGACCGGTTTTCCCGGTAATCCGTATTTGAC (site AATGGATCTGT)
3. TCTGCGGCATGGACCGGTTTTCCCGGTAATCCGTATTTGTT (site TCTGCGGCTAA)
4. GTGCCTGCATGGACCGGTTTTCCCGGTAATCCGTATTTGGT (site GTGCTTGCTAC)
5. ACCACGACATGGACCGGTTTTCCCGGTAATCCGTATTTGAC (site ACCACGACTGT)
6. CCAGATGCATGGACCGGTTTTCCCGGTAATCCGTATTTGCG (site CCAGATGCTCG)
7. GAGTCAGCATGGACCGGTTTTCCCGGTAATCCGTATTTGCC (site GAGTCAGCTGG)
8. CACTAGGCATGGACCGGTTTTCCCGGTAATCCGTATTTGGA (site CACTCGGCTTC)

(A)
1. 0.00843
2. 2.04
3. 0.0132
4. 0.00506
5. 2.72
6. 1.59
7. 1.07
8. 0.0143

Batch of 5 sequences: report recombinant UMI read abundance (log10) for each.
1. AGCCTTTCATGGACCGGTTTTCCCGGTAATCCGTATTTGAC (site AGCCTTGCTGT)
2. TCGACTTCATGGACCGGTTTTCCCGGTAATCCGTATTTGTG (site TCGACTTCTCA)
3. TGCTAGGCATGGACCGGTTTTCCCGGTAATCCGTATTTGTT (site TGCTAGGCTAT)
4. CGCGGAACATGGACCGGTTTTCCCGGTAATCCGTATTTGTT (site CGAGGAACTAA)
5. AGCCAGACATGGACCGGTTTTCCCGGTAATCCGTATTTGCA (site AGCCAGACTTG)

(A)
1. 0
2. 0
3. 0
4. 0.0752
5. 2.18

Batch of 5 sequences: report recombinant UMI read abundance (log10) for each.
1. GATGATTCATGGACCGGTTTTCCCGGTAATCCGTATTTGTT (site GATGATTCTAA)
2. ACAAATCCATGGACCGGTTTTCCCGGTAATCCGTATTTGAC (site ACAGATCCTGT)
3. CTTCTCTCATGGACCGGTTTTCCCGGTAATCCGTATTTGCA (site CTTCTCTCTTT)
4. ACCTAGACATGGACCGGTTTTCCCGGTAATCCGTATTTGGG (site ACCTAGACTAC)
5. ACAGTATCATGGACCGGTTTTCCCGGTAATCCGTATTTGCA (site ACGGTATCTTA)

(A)
1.79
0
0.83
0.0239
0.00481

* * *

Could you please report measured recombinant UMI read abundance (log10) for the items listed next?
Assay procedure: recombinant UMI read abundance after kanamycin selection (control-corrected) (log10(CPM+1)); higher = more efficient recombination; extreme values may be limits of the assay; sequences stand for … in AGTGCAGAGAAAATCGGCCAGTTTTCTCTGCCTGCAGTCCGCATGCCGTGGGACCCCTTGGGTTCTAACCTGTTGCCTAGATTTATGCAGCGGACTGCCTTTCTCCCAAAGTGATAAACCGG…AGGTTGGTTTCACT; site = the 11-nt donor
Answers are plain numbers.

The cases that follow already have their recombinant UMI read abundance (log10) on record.
[[record]]
macromolecule_sequence = "GTACTCGCATGGACCGGTTTTCCCGGTAATCCGTATTTGCG (site GTAATCGCTCG)"
numeric_value = 0.0162

[[record]]
macromolecule_sequence = "CCATGTGCATGGACCGGTTTTCCCGGTAATCCGTATTTGAA (site CCATGTGCTTT)"
numeric_value = 0.336

[[record]]
macromolecule_sequence = "TTGAGCGCATGGACCGGTTTTCCCGGTAATCCGTATTTGCC (site TTGAGCGCTGG)"
numeric_value = 1.9


Batch of 6 sequences: report recombinant UMI read abundance (log10) for each.
1. ATCTATACATGGACCGGTTTTCCCGGTAATCCGTATTTGGC (site ATCTATACTGC)
2. GGCGCACCATGGACCGGTTTTCCCGGTAATCCGTATTTGCA (site GGGGCACCTTG)
3. TAGGCATCATGGACCGGTTTTCCCGGTAATCCGTATTTGCG (site TAGGAATCTCG)
4. GATTGGACATGGACCGGTTTTCCCGGTAATCCGTATTTGAC (site GATTGGACTTT)
5. AATGTGTCATGGACCGGTTTTCCCGGTAATCCGTATTTGAC (site AATGTGTCTAT)
6. GCTGTTCCATGGACCGGTTTTCCCGGTAATCCGTATTTGGT (site GGTGTTCCTAC)

(A)
1. 2.23
2. 0
3. 0
4. 0.0228
5. 0.00893
6. 0.0107

* * *

Assay procedure: recombinant barcode read abundance after kanamycin selection (control-corrected) (log10(CPM+1)); higher = more efficient recombination; sequences stand for … in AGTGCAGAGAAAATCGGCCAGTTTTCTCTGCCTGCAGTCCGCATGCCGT…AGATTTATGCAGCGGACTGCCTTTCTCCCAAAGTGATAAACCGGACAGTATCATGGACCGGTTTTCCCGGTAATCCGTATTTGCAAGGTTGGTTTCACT; site = the 11-nt target
Class membership depends on recombinant barcode read abundance (log10) alone; the intervals are A = under 0.08, B = from 0.08 up to 0.3, C = 0.3 and over

// known answers, use as guide
[[record]]
macromolecule_sequence = "TTGACTGCTTGGGTTCTAACCTGTTGCCT (site TTGAGTGCTAG)"
qualitative_label = "A"

[[record]]
macromolecule_sequence = "CTAACCTCTTGGGTTCTAACCTGTTGCTT (site CTAACCTCTCA)"
qualitative_label = "B"


(Q) Sort into band: GCCCGTGCTTGGGTTCTAACCTGTTGCCT (site GCGCGTGCTAG)
(A) B

(Q) Let us now turn to AAGACATCTTGGGTTCTAACCTGTTGCTT (site AAGACATCTAA)
(A) C

(Q) Let us now turn to GAACGACCTTGGGTTCTAACCTGTTGCTG (site GAACGACCTAA)
(A) A

(Q) Let us now turn to GTAATGTCTTGGGTTCTAACCTGTTGCCT (site GGAATGTCTAG)
(A) B

(Q) Let us now turn to GTTCCTACTTGGGTTCTAACCTGTTGCCT (site GTTCCTACTAG)
(A) C

(Q) Let us now turn to TCGAGTTCTTGGGTTCTAACCTGTTGCCT (site TCGAGTACTAG)
(A) B

(Q) Let us now turn to TTGGACGCTTGGGTTCTAACCTGTTGCCT (site TTGGTCGCTAG)
(A) B

(Q) Let us now turn to TTACGCGCTTGGGTTCTAACCTGTTGCGG (site TTACGCGCTCC)
(A) C

(Q) Let us now turn to CGCGGTCCTTGGGTTCTAACCTGTTGCCT (site CGCGGTCCTAG)
(A) A

(Q) Let us now turn to TCTTCGACTTGGGTTCTAACCTGTTGCAG (site TCTTCGACTCT)
(A) B

(Q) Let us now turn to GTACTCTCTTGGGTTCTAACCTGTTGCAG (site GTACTCTCTCT)
(A) C

(Q) Let us now turn to ACTTCAACTTGGGTTCTAACCTGTTGCCT (site ACTTCAACTAG)
(A) B

(Q) Let us now turn to TTCTCGCCTTGGGTTCTAACCTGTTGCCT (site TTCACGCCTAG)
(A) A

(Q) Let us now turn to TAGGCGCCTTGGGTTCTAACCTGTTGCCT (site TAGGCGCCTAG)
(A) B

(Q) Let us now turn to GACTGAGCTTGGGTTCTAACCTGTTGCGT (site GACTGAGCTAC)
(A) C

(Q) Let us now turn to GATTCTCCTTGGGTTCTAACCTGTTGCCT (site GATTCTCCTAT)
(A) A
